# study_target: human TRPV1 (Homo sapiens)
# Construct: using primers designed surrounding the complete hTRPV1 open reading frame; expressed in transfected cells; host or cells: CHO-K1 cells stably transfected with pcDNA3.1(-)-hVR1 plasmid
# Sequence (Q8NER1 whole entry): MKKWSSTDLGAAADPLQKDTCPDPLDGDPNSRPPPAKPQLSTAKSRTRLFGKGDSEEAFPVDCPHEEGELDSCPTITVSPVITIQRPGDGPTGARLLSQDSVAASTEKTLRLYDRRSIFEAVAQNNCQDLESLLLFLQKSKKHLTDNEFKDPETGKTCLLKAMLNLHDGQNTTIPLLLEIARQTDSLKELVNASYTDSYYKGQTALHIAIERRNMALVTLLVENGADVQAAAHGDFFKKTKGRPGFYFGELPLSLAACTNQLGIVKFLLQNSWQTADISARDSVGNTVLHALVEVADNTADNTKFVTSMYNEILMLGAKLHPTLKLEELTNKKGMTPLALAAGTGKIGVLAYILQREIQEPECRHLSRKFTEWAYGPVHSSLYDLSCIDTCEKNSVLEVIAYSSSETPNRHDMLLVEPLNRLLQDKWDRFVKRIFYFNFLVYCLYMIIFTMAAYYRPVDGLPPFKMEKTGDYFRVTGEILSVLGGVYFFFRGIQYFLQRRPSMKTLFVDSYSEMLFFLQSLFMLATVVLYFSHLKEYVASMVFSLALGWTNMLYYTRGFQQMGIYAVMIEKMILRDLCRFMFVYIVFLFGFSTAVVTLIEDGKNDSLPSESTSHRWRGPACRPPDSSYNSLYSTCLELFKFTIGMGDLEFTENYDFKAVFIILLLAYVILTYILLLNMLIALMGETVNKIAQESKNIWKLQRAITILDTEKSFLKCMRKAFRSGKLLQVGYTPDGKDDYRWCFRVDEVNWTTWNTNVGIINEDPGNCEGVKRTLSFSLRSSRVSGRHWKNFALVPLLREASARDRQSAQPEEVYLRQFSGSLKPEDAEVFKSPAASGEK
# experiment_description: Capsaicin-based assay, Protocol 2 (TRPV1/CHO cells, Fluo-4, FLIPR)
# Type: cell-based
# condition_description: capsaicin 100 nM final, mean ± SEM, number of trials in parentheses, read-out: TRPV1 IC50 Potency, Human Capsaicin CHO (hCAP-CHO)
property_label: IC50 (nM)

| molecule | output_unit | IC50 |
| --- | --- | --- |
| O=C(Nc1ccc(OC(F)(F)F)cc1)N1CC=C(c2ncc(CO)cc2Cl)CC1 [Compound Q2] | nM | 194 |
| COc1cc(NC(=O)N2CC=C(c3ncc([C@H](O)CO)cc3Cl)CC2)ccc1C(F)(F)F [Compound A2] | nM | 84.1 |
| CC1(C)CCOc2cc(NC(=O)N3CC=C(c4ncc([C@H](O)CO)cc4F)CC3)ccc21 [Compound A4] | nM | 55.1 |

1. CC(C)c1cc(NC(=O)N2CC=C(c3ncc([C@H](O)CO)cc3Cl)CC2)ccc1OC(F)(F)F [Compound B2]
2. O=C(Nc1ccc(OC(F)(F)F)c(Cl)c1)N1CC=C(c2ncc([C@H](O)CO)cc2Cl)CC1 [Compound H2]
3. O=C(Nc1ccc(OC(F)(F)F)c(Cl)c1)N1CCC(F)(c2ncc([C@H](O)CO)cc2Cl)CC1 [Compound M1]
Input line: // sort entries: IC50, high to low Put the labels in the requested order and write them down.
Output line: 2, 1, 3
(2: 118 nM, 1: 77.6 nM, 3: 37.5 nM)
